Here's a batch of compounds along with measured pKi for UniProt P29274.
Sequence (P29274 whole entry): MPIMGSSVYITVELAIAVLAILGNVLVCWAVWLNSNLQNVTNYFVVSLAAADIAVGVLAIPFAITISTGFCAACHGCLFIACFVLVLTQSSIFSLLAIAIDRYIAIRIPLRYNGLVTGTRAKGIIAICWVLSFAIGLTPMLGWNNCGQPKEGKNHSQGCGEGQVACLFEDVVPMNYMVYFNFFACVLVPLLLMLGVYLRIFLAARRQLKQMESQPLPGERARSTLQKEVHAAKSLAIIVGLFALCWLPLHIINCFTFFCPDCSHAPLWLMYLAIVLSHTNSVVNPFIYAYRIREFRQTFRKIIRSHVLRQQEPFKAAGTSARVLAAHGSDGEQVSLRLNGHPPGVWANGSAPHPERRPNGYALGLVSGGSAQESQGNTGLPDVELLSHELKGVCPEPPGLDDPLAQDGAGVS
Schema: pKi number; meaning minus log10 of the concentration expressed in molar units.

Some solved cases for reference:
{"compound": "COc1ccc(O)c(-c2nc(N3CCOCC3)c3ncn(C)c3n2)c1 [3j]", "pKi": 5.91}
{"compound": "Cn1cnc2c(N3CCOCC3)nc(-c3ccccc3O)nc21 [3c]", "pKi": 6.47}
{"compound": "Oc1cccc(-c2nc(N3CCOCC3)c3nc[nH]c3n2)c1 [3p, 3-(6-Morpholino-9H-purin-2-yl)phenol]", "pKi": 6.26}
{"compound": "Cn1cnc2c(N3CCOCC3)nc(-c3cc(Cl)ccc3O)nc21 [3k]", "pKi": 6.15}

**Q:** Supply recorded pKi for Oc1ccccc1-c1nc(N2CCOCC2)c2nc[nH]c2n1 [3n, 2-(6-Morpholino-9H-purin-2-yl)phenol] here.
**A:** 6.97
